assayed-target: purified S1P(187-983) (Cricetulus griseus)
Construct: 1.5-5 μg of purified S1P(187-983); made in house; host or cells: SRD-12B cells (CHO-derived) stably transfected with pCMV-S1P(983)-Myc-His (TR-3117, 'S1P(983) cells'); The protein was secreted into serum-free medium and purified on Ni-NTA agarose
Sequence (Q9Z2A8 187-983): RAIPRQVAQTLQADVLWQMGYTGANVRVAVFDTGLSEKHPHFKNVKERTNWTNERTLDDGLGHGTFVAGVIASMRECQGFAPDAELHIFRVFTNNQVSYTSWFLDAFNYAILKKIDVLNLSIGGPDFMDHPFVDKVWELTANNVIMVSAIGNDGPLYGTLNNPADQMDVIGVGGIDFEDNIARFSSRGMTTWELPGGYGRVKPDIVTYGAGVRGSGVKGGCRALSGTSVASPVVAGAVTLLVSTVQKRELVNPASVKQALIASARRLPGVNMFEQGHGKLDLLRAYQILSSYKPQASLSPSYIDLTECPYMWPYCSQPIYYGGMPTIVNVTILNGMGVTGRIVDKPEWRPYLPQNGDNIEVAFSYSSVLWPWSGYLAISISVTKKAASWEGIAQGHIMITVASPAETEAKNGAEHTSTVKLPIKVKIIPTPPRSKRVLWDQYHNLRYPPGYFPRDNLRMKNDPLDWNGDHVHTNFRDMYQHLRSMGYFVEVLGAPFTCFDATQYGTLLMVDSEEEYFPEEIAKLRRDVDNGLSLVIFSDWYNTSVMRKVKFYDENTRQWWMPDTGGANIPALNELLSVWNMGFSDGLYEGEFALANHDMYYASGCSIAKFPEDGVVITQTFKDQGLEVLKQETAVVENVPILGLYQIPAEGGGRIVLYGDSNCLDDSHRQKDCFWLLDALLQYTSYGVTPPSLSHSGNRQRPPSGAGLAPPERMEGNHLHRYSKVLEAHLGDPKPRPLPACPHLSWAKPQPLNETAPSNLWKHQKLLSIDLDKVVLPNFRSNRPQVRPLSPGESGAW
Format: biochemical, hamster
particulars: incubated with substrate Ac-VFRSLK-MCA
Non-standard residues stand in square brackets, D forms with d. Residues, ends and D or L forms follow the SMILES beside them. *: point of attachment. Sta = CC(C)C[C@H](N)[C@@H](O)CC(=O)O; Isovaleryl = CC(C)CC(=O)*

| molecule | inhibition of S1P |
| --- | --- |
| CC(C)CC(=O)N[C@H](C(=O)N[C@H](C(=O)N[C@@H](CC(C)C)[C@@H](O)CC(=O)N[C@@H](C)C(=O)N[C@@H](CC(C)C)[C@@H](O)CC(=O)O)C(C)C)C(C)C [pepstatin] (Isovaleryl-VV[Sta]A[Sta]-OH) | resistant |
| CC(=O)N[C@@H](CC(C)C)C(=O)N[C@@H](CC(C)C)C(=O)N[C@H](C=O)CCCNC(=N)N [leupeptin] | resistant |
